target: AnCE (Drosophila melanogaster); construct: made in house; host or cells: Pichia pastoris GS115 (vector pPiC9), purified from the culture supernatant; assay: Inhibition of AnCE activity, fluorogenic Abz-FRK(Dnp)-P substrate assay; type: biochemical; details: AnCE; from IC50 by Cheng–Prusoff equation, substrate Km 14.24 µM
Sequence (Q10714 18-615): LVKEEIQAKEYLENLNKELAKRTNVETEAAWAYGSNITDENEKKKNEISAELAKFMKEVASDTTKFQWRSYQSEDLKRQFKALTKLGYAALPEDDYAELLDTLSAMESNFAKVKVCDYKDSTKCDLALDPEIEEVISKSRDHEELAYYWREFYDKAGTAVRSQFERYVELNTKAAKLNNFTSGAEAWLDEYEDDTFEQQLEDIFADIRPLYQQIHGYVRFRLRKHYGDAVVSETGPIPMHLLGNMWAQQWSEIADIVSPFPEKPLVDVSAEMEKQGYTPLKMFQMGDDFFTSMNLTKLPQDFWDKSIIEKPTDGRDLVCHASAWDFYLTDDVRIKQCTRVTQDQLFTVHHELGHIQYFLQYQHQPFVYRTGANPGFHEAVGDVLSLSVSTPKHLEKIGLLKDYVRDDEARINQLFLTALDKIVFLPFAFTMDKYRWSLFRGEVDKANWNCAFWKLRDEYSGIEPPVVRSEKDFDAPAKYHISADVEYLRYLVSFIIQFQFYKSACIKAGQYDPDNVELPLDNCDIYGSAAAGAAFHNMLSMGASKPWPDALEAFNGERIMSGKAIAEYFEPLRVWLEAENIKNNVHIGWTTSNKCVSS
Residues, ends and D or L forms follow the SMILES beside them.
measured_endpoint: Ki (µM)

Worked set:
Asked: Give its Ki value. Item: CC(C)[C@H](N)C(=O)N[C@@H](Cc1c[nH]c2ccccc12)C(=O)O [VW] (H-Val-Trp-OH)
Given back: 170

Asked: Give its Ki value. Item: N[C@@H](Cc1ccc(O)cc1)C(=O)N[C@@H](Cc1c[nH]c2ccccc12)C(=O)O [YW] (H-Tyr-Trp-OH)
Given back: 750

a. N=C(N)NCCC[C@H](NC(=O)[C@@H](N)Cc1c[nH]c2ccccc12)C(=O)O [WR] (H-Trp-Arg-OH)
b. CC[C@H](C)[C@H](N)C(=O)N[C@@H](Cc1c[nH]c2ccccc12)C(=O)O
Asked: Hi! Which is lower in terms of Ki, the first one a or the second one b ? Reply with the label of the item you choose.
Given back: b
(b: 80 µM, a: 840 µM)
